system: CCRIS mutagenicity, Ames/micronucleus/aberration tests; test: CCRIS mutagenicity studies; conditions: Test System: AMES SALMONELLA TYPHIMURIUM; Strain/Indicator: TA1535; Metabolic Activation: HAMSTER, LIVER, S-9, AROCLOR 1254 (10%); Method: PREINCUBATION
Calls of active or inactive are those of the source. How the calls were made is not given here.
ASSAY READOUT: mutagenic call

INSERT INTO results (compound, result) VALUES
  ('Cc1ccc(N=C=O)cc1N=C=O', 'inactive; negative'),
  ('CC(O)C#N (stereo not given)', 'inactive; negative'),
  ('C=CCOC(=O)C=C', 'inactive; negative'),
  ('O=C(O)c1ccc([N+](=O)[O-])cc1', 'inactive; negative'),
  ('CC(=O)Nc1ccc(N)cc1', 'inactive; negative'),
  ('c1ccc2sc(SSc3nc4ccccc4s3)nc2c1', 'inactive; negative'),
  ('C=CC(=O)O', 'inactive; negative'),
  ('C=CC1CC=CCC1 (stereo not given)', 'inactive; negative'),
  ('CCCCOC(=O)c1ccccc1C(=O)OCCCC', 'inactive; negative'),
  ('O=Cc1c(Cl)cccc1Cl', 'inactive; negative'),
  ('Nc1ccccc1N', 'inactive; negative'),
  ('O=S1(=O)CC=CC1', 'inactive; negative'),
  ('C[O+](C)C.[Cl][Sb-]([Cl])([Cl])([Cl])([Cl])[Cl]', 'inactive; negative'),
  ('CCCCOP(=O)(OCCCC)Oc1ccccc1', 'inactive; negative'),
  ('ClC(Cl)(Cl)Cl', 'inactive; negative'),
  ('CN(C)c1cccc(O)c1', 'inactive; negative'),
  ('CCCCC(CC)COP(OCC(CC)CCCC)OCC(CC)CCCC (stereo not given)', 'inactive; negative'),
  ('Cc1cc(-c2ccc(N=Nc3cc(S(=O)(=O)O)c4ccccc4c3N)c(C)c2)ccc1N=Nc1cc(S(=O)(=O)O)c2ccccc2c1N', 'inactive; negative'),
  ('Cc1c(Br)c(Br)c(Br)c(Br)c1Br', 'inactive; negative');
